molecular target: human NTCP (Homo sapiens, UniProt Q14973); experiment: Screening taurocholate uptake assay (96-well, [14C]taurocholate, 10 µM drug); conditions: Prestwick library screen, taurocholate uptake, 10 µM drug
Sequence (Q14973 whole entry): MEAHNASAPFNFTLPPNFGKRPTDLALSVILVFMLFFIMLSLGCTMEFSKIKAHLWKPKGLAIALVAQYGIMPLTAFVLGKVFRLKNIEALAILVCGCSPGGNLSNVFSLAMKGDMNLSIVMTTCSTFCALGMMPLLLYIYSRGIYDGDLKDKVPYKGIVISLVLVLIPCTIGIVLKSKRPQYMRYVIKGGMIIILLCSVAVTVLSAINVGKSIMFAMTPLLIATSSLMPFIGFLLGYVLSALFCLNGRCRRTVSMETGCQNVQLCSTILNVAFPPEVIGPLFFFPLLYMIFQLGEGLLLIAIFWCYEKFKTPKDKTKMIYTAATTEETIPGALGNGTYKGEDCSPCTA
Measurement Label: B-score functional assay
Field format: numeric only.

Input line: Field request: B-score functional assay | item: "Nc1ccc(O)c(C(=O)O)c1"
Output line: -0.331

Input line: Field request: B-score functional assay | item: "CO[C@H]1C[C@H](O[C@H]2[C@H](C)[C@@H](O[C@@H]3O[C@H](C)C[C@H](N(C)C)[C@H]3OC(C)=O)[C@@H](C)C[C@@]3(CO3)C(=O)[C@H](C)[C@@H](OC(C)=O)[C@@H](C)[C@@H](C)OC(=O)[C@@H]2C)O[C@@H](C)[C@@H]1OC(C)=O"
Output line: -0.071

Input line: Field request: B-score functional assay | item: CCCCCCCN(CC)CCCC(O)c1ccc(NS(C)(=O)=O)cc1.CCCCCCCN(CC)CCCC(O)c1ccc(NS(C)(=O)=O)cc1.O=C(O)/C=C/C(=O)O (stereo not shown) [Ibutilide fumarate]
Output line: 0.035

Please look at the following compound next.
Input line: Field request: B-score functional assay | item: "C[C@@H]1CC[C@H]2[C@@H](C)C(=O)O[C@@H]3O[C@@]4(C)CC[C@@H]1[C@]32OO4"
Output line: 0.234

---

target: UniProt:Q14973; assay: Screening taurocholate uptake assay (96-well, [14C]taurocholate, 10 µM drug); conditions: combined ranking from functional and binding assay B-scores
Where a name gives a salt, the structure may show the parent alone.
Measurement Label: Ranking score

Input line: Field request: Ranking score | item: "Nc1ccc(S(=O)(=O)Nc2ccnn2-c2ccccc2)cc1"
Output line: 867.854

Input line: Field request: Ranking score | item: CCN(CC)CCNC(=O)c1cc(Br)c(N)cc1OC [Bromopride]
Output line: 880.053

Input line: Field request: Ranking score | item: COC(=O)Nc1nc2ccc([S+]([O-])c3ccccc3)cc2[nH]1 (stereo not drawn)
Output line: 1042.44

Input line: Field request: Ranking score | item: C=CCSCC1Nc2cc(Cl)c(S(N)(=O)=O)cc2S(=O)(=O)N1 (stereo not drawn) [Althiazide]
Output line: 866.45

Input line: Field request: Ranking score | item: CCN(CC)CCOC(=O)C1(c2ccc([N+](=O)[O-])cc2)CCCC1.Cl [Nitrocaramiphen hydrochloride]
Output line: 904.838

Input line: Field request: Ranking score | item: c1ccc2c(c1)CCCC2C1=NCCN1 (stereo not drawn) [Tetrahydrozoline hydrochloride]
Output line: 952.65

Input line: Field request: Ranking score | item: "CN(C)/N=N/c1[nH]cnc1C(N)=O"
Output line: 928.431

Input line: Field request: Ranking score | item: "Cn1cnc([N+](=O)[O-])c1Sc1ncnc2nc[nH]c12"
Output line: 1083.5

Further cases:
Input line: Field request: Ranking score | item: CCOC(=O)c1cncn1[C@H](C)c1ccccc1 [Etomidate]
Output line: 852.333

---

target: human NTCP (Homo sapiens, UniProt Q14973); assay: Screening taurocholate uptake assay (96-well, [14C]taurocholate, 10 µM drug); conditions: combined ranking from functional and binding assay B-scores
Structures can show the parent of a compound that is named as a salt.
Measurement Label: Ranking score
Field format: numeric only.

Please review the following examples before continuing.
Input line: Form field - read-out: Ranking score; system: human NTCP (Homo sapiens, UniProt Q14973); submitted item: CC(Cc1cccc(C(F)(F)F)c1)NCCOC(=O)c1ccccc1 (stereo not shown)
Output line: 1033.89

Input line: Form field - read-out: Ranking score; system: human NTCP (Homo sapiens, UniProt Q14973); submitted item: "Cn1c(=O)c2c(ncn2CC(=O)O)n(C)c1=O"
Output line: 910.022

Input line: Form field - read-out: Ranking score; system: human NTCP (Homo sapiens, UniProt Q14973); submitted item: Cl.N[C@@H]1CCCCN(c2c(F)cc3c(=O)c(C(=O)O)cn(C4CC4)c3c2Cl)C1 [Besifloxacin hydrochloride]
Output line: 1087.71

Input line: Form field - read-out: Ranking score; system: human NTCP (Homo sapiens, UniProt Q14973); submitted item: CC1(C)NC(=O)N(c2ccc([N+](=O)[O-])c(C(F)(F)F)c2)C1=O [Nilutamide]
Output line: 1119.7

Further cases:
Input line: Form field - read-out: Ranking score; system: human NTCP (Homo sapiens, UniProt Q14973); submitted item: CN1CCN(CC(=O)N2c3ccccc3C(=O)Nc3cccnc32)CC1 [Pirenzepine dihydrochloride]
Output line: 857.349

Input line: Form field - read-out: Ranking score; system: human NTCP (Homo sapiens, UniProt Q14973); submitted item: "CC[C@H]1OC(=O)[C@H](C)[C@@H](O[C@H]2C[C@@](C)(OC)[C@@H](O)[C@H](C)O2)[C@H](C)[C@@H](O[C@@H]2O[C@H](C)C[C@H](N(C)C)[C@H]2O)[C@](C)(O)C[C@@H](C)[C@@H]2N[C@@H](COCCOC)O[C@H]([C@H]2C)[C@]1(C)O"
Output line: 934.441

Input line: Form field - read-out: Ranking score; system: human NTCP (Homo sapiens, UniProt Q14973); submitted item: Cl.Clc1ccc(C(OCCN2CCCCC2)c2ccccc2)cc1 (stereo not shown) [Cloperastine hydrochloride]
Output line: 1021.61
